- system under test: T1, CEACAM1 antigen (Sino Biological, Inc.) (UniProt P13688 35-428)
- T1 construct: Bought antigen coated on the ELISA plate; construct not described; also called CEACAM1 (CD66a) antigen; CD66a
- T1 sequence (looked up): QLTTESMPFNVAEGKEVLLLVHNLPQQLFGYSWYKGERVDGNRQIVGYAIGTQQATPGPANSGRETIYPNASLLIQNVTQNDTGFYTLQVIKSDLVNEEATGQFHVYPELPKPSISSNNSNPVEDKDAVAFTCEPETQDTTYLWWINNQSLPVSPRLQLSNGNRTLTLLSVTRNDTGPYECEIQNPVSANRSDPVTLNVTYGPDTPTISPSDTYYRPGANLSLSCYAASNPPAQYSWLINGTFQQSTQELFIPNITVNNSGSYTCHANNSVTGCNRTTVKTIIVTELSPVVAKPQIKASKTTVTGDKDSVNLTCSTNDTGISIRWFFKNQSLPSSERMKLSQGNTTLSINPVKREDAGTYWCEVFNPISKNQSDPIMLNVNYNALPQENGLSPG
- method description: ELISA, coated CEACAM1 100 ng/well, antibody 41.15 ng/ml

binder: recombinant humanized anti-CD66c antibody Protein ID 3058 (Vk8 + VH11) (antibody, human IgG1, V domains shown, also called hu 3058; #86) VH: QVQLVQSGAEVKKPGASVKISCKASGYSFTDYTMHWVKQAPGQNLEWIGLINPFGGSTSYAQKFKGRVTMTRDTSTNTAYMELSRLRSDDTAVYYCVRGDPVRHYYALAYWGQGTLVTVSS VL: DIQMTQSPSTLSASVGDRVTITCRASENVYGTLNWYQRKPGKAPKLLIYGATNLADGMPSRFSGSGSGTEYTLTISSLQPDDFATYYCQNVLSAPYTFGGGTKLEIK
output unit: OD
OD 450 nm: 0.07

binder: anti-CD66c chimeric antibody 8F5 (antibody, human IgG1, V domains shown, also called chimeric 8F5 antibody; chi 8F5) VH: EVQLQQSGPELVKPGASMKISCKASGYSFTDYTMNWVKQSHGKNLEWIGLINPFHGGTVSNQRFKVKATLTVDVSSNTAYMELLSLTSDDSAVYYCVRGDPVRHYYALAYWGQGTSVTVSS VL: DIQMTQSPASLSASVGETVTITCGASENVYGTLNWYQRKQGKSPQLLIYGATNLADGMSSRFSGSGSGRQYSLKISSLHPDDVATYYCQNVLSAPYTFGGGTKLEII
output unit: OD
OD 450 nm: 0.82

binder: recombinant humanized anti-CD66c antibody Protein ID 2938 (Vk5 + VH7) (antibody, human IgG1, V domains shown, also called hu 2938) VH: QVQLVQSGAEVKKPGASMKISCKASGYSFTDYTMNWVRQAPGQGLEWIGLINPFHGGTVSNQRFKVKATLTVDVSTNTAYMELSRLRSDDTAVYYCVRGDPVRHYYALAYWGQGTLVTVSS VL: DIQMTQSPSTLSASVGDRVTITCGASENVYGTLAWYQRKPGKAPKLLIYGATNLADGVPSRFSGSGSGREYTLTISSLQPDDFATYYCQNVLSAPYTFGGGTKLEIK
output unit: OD
OD 450 nm: 0.07
